# target entity: Adenosine receptor A1 (Rattus norvegicus)
# method notes: Displacement of [3H]CCPA from adenosine A1 receptor in rat brain cortical membrane at 25 uM
# Assay type: cell membranes
reported endpoint: Activity (%)

Worked cases, Activity given:
[[record]]
compound = "Cn1c(=O)c2c(nc3n2CCCN3Cc2ccc(F)cc2)n(C)c1=O"
reported_endpoint = "Activity"
numeric_readout = 17

[[record]]
compound = "CCCn1c(=O)c2c(nc3n2CCCN3Cc2ccccc2Cl)n(CCC)c1=O"
reported_endpoint = "Activity"
numeric_readout = 89

[[record]]
compound = "Cn1c(=O)c2c(nc3n2CCCN3Cc2ccc(Cl)cc2)n(C)c1=O"
reported_endpoint = "Activity"
numeric_readout = 27


P. CCCn1c(=O)c2c(nc3n2CCCN3Cc2ccc(Cl)cc2)n(CCC)c1=O
Q. Cn1c(=O)c2c(nc3n2CCCN3Cc2ccco2)n(C)c1=O
Which one would you say has the larger Activity value: P , or Q ? Selection: enter the item's label. Q
(Q: 56%, P: 28%)

A. Cn1c(=O)c2c(nc3n2CCCN3Cc2ccccn2)n(C)c1=O
B. CCCn1c(=O)c2c(nc3n2CCCN3Cc2ccc(F)cc2)n(CCC)c1=O
Lower Activity: A or B ? Selection: enter the item's label. A

I. CCCn1c(=O)c2c(nc3n2CCCN3Cc2ccc(C)cc2)n(CCC)c1=O
II. Cn1c(=O)c2c(nc3n2CCCN3Cc2ccc(Cl)cc2Cl)n(C)c1=O
Lower Activity: I or II ? Selection: enter the item's label. II
